Below, each of the variants is paired with its reported ddG of mutation (higher = less stable) value.
B1: Alpha-lactalbumin, P00712 (parent)
chain: MMSFVSLLLVGILFHATQAEQLTKCEVFQKLKDLKDYGGVSLPEWVCTAFHTSGYDTQAIVQNNDSTEYGLFQINNKIWCKDDQNPHSRNICNISCDKFLDDDLTDDIVCAKKILDKVGINYWLAHKALCSEKLDQWLCEKL

Variants of: B1
details: Capra hircus; pH 7.5; 25 °C; GdnHCl; CD; Tris 20 mM; Ca2+ 10 mM; structure 1HFY; whole UniProt chain shown
quantity: ddG of mutation (higher = less stable)

[[record]]
mutantdesignation = "W137F"
result = "-0.16 kcal/mol"

[[record]]
mutantdesignation = "W123F"
result = "2.27 kcal/mol"

[[record]]
mutantdesignation = "W45F"
result = "2.4 kcal/mol"

[[record]]
mutantdesignation = "W79F"
result = "1.27 kcal/mol"


Just for reference, FireProtDB (doi:10.1021/bi0512400) is where these values come from.
